Hello, the source for this data is patent US20190381088, in case you need it.

Biological target: T1, IL-17 (human IL-17) (Homo sapiens, UniProt Q16552 Q16552:24-155)
T1 sequence: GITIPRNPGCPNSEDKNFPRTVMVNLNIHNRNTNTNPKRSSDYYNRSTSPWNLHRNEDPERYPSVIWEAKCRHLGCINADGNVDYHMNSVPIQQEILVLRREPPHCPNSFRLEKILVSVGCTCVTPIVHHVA
Assay: cell_activity; inhibition of IL-17 (10 ng/mL) + mouse TNF induced IL-6 in NIH3T3 cells, 37 C preincubation 30 min
Details: chain copies: 2 inferred (homodimer)
measureName: IC50

binder	testValue
GGGUAGCCGGAGGAGTCAGTAAUCGGUACCC (mixed, 2'-OMe at 1-4,7,8,10,13,14,23-26,28; 2'-F at 11,17,18,27; PS at g6; DNA at A5,G9,T16,T20,C29-C31; rest 2'-OH RNA; 3' idT (stated for in vivo tests); 5' symmetrical brancher with spacer + ssH amino linker + 2 x 40 kDa branched PEG (80 kDa total)) [Example sequence 1 (aptamer No. 8) PEG-linker-spacer-brancher]	0.041 nM
GGGUAGCCGGAGGAGTCAGTAAUCGGUACCC (mixed, 2'-OMe at 1-4,7,8,10,13,14,23-26,28; 2'-F at 17,27; DNA at A5,G9,T16,T20,C29-C31; rest 2'-OH RNA; 3' idT (stated for in vivo tests); 5' symmetrical brancher with spacer + ssH amino linker + 2 x 40 kDa branched PEG (80 kDa total)) [Example sequence 2 (aptamer No. 48) PEG-linker-spacer-brancher]	0.18 nM
GGGUAGCCGGAGGAGTCAGTAAUCGGUACCC (mixed, 2'-OMe at 1-4,7,8,10,13,14,23-26,28-31; 2'-F at 11,17,18,27; PS at g6; DNA at A5,G9,T16,T20; rest 2'-OH RNA; 3' idT (stated for in vivo tests); 5' symmetrical brancher with spacer + ssH amino linker + 2 x 40 kDa branched PEG (80 kDa total)) [Example sequence 4 (aptamer No. 93) PEG-linker-spacer-brancher]	0.06 nM
